- target-entity: uPAR-expressing HEC-265 human endometrial adenocarcinoma cells (Homo sapiens)
- Construct: Cell surface uPAR-expressing HEC-265 human endometrial adenocarcinoma cells; host or cells: HEC-265
- Sequence (Q03405 23-335): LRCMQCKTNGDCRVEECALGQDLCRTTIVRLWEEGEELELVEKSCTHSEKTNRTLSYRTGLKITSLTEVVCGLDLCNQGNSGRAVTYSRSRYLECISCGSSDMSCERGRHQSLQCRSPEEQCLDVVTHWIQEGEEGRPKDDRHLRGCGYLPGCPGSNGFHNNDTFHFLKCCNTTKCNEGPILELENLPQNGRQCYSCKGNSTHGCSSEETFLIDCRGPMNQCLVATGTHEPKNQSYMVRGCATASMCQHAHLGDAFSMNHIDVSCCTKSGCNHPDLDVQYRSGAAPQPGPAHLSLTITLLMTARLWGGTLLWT
- assay-comment: Competitive FACS binding assay
- experimental-parameters: pIC50 category of FACS binding
Where a SMILES comes first, the peptide text is derived from it. Bridges are numbered along the chain shown (N, C = ends). [ ]: non-standard residue; d: D form. The star is where a group is joined. Propanoyl(3-NMe2) = CN(C)CCC(=O)*; Pentanoyl(4-Me) = CC(C)CCC(=O)*; Cha = N[C@@H](CC1CCCCC1)C(=O)O; Cit = NC(=O)NCCC[C@H](N)C(=O)O; Pip = O=C(O)[C@@H]1CCCCN1; Nva = CCC[C@H](N)C(=O)O; Pentanoyl = CCCCC(=O)*
endpoint: IC50

A selection of reference data follows.
compound="CC(C)CCC(=O)N[C@H]1CSSC[C@@H](C(N)=O)NC(=O)[C@H](CC(C)C)NC(=O)[C@H](CC2CCCCC2)NC(=O)[C@@H](C)NC(=O)[C@@H]2CCCN2C(=O)[C@H](Cc2ccccc2)NC(=O)[C@H](Cc2ccc(O)cc2)NC(=O)[C@H](CCC(N)=O)NC(=O)[C@H](CCCNC(N)=O)NC1=O [UPAR-326] ({Pentanoyl(4-Me)}-C[Cit]QYFP[dA][Cha]LC-NH2; disulfide 1-10)" target_entity="uPAR-expressing HEC-265 human endometrial adenocarcinoma cells (Homo sapiens)" assay_value="≤ 10 nM"
compound="CC[C@H](C)[C@@H]1NC(=O)[C@H](C)NC(=O)[C@@H]2CCCN2C(=O)[C@H](Cc2ccccc2)NC(=O)[C@H](Cc2ccc(O)cc2)NC(=O)[C@H](CCC(N)=O)NC(=O)[C@H](CCCNC(=N)N)NC(=O)[C@@H](NC(=O)[C@H](CC(C)C)NC(C)=O)CSSC[C@@H](C(N)=O)NC(=O)[C@H](CC(C)C)NC1=O [UPAR-381] (Ac-LCRQYFPAILC-NH2; disulfide 2-11)" target_entity="uPAR-expressing HEC-265 human endometrial adenocarcinoma cells (Homo sapiens)" assay_value="≤ 10 nM"
compound="CC[C@H](C)[C@@H]1NC(=O)[C@@H](C)NC(=O)[C@@H]2CCCCN2C(=O)[C@H](Cc2ccccc2)NC(=O)[C@H](Cc2ccc(O)cc2)NC(=O)[C@H](CCC(N)=O)NC(=O)[C@H](CCCNC(N)=O)NC(=O)[C@@H](NC(=O)CCC(C)C)CSSC[C@@H](C(N)=O)NC(=O)[C@H](CC(C)C)NC1=O [UPAR-232] ({Pentanoyl(4-Me)}-C[Cit]QYF[Pip][dA]ILC-NH2; disulfide 1-10)" target_entity="uPAR-expressing HEC-265 human endometrial adenocarcinoma cells (Homo sapiens)" assay_value="≤ 10 nM"
compound="CC[C@H](C)[C@@H]1NC(=O)[C@@H](C)NC(=O)[C@@H]2CCCN2C(=O)[C@H](Cc2ccccc2)NC(=O)[C@H](Cc2ccc(O)cc2)NC(=O)[C@H](CCC(N)=O)NC(=O)[C@H](CCCNC(N)=O)NC(=O)[C@@H](NC(=O)CCN(C)C)CSSC[C@@H](C(N)=O)NC(=O)[C@H](CC(C)C)NC1=O [UPAR-333] ({Propanoyl(3-NMe2)}-C[Cit]QYFP[dA]ILC-NH2; disulfide 1-10)" target_entity="uPAR-expressing HEC-265 human endometrial adenocarcinoma cells (Homo sapiens)" assay_value="39.8 to 100 nM"

Next compound, IC50 to be filled in.
Ask: Value lookup for IC50; key = CCCCC(=O)N[C@H]1CSSC[C@@H](C(N)=O)NC(=O)[C@H](CCC)NC(=O)[C@H]([C@@H](C)CC)NC(=O)[C@H](CC(=O)O)NC(=O)[C@@H]2CCCN2C(=O)[C@H](Cc2ccccc2)NC(=O)[C@H](Cc2ccc(O)cc2)NC(=O)[C@H](CCC(N)=O)NC(=O)[C@H](CCCNC(=N)N)NC1=O [UPAR-344] (Pentanoyl-CRQYFPDI[Nva]C-NH2; disulfide 1-10)
Result: ≤ 10 nM
